subject-of-test: KCNQ 2/3 channels (HEK293 cells stably expressing human KCNQ2 and KCNQ3 subunits) (Homo sapiens, UniProt O43525+O43526)
Construct: expressed in transfected cells; host or cells: HEK293
procedure-details: KCNQ2/3 channel activation, thallium flux FLIPR assay with BTC-AM dye
Type: cell-based
particulars: HEK293; maximum response relative to the response produced by 10 μM retigabine (set at 100%); read-out: Max. %
attribute-measured: Emax (%)
One number for each entry, in %.

Use the examples below as a reference point.
COc1ccc(-c2nn(NC(=O)Cc3cc(F)cc(F)c3)c(=O)c3ccccc23)cc1 [Example 153] ... 143
O=C(Cc1ccc(Cl)cc1)Nn1nc(-c2ccccc2)c2cc(F)ccc2c1=O [Example 36] ... 155
O=C(CC1CC2CCC1C2)Nn1nc(-c2cccc(Cl)c2)c2ccccc2c1=O (racemic) [Example 125] ... 150
O=C(Cc1cccs1)Nn1nc(C(F)(F)F)c2ccccc2c1=O [Example 54] ... 84

// recorded Emax for O=C(CC12CC3CC(CC(C3)C1)C2)Nn1nc(-c2ccccc2)c2ccsc2c1=O [Example 29] : 173
